- Tested Target: NS3h_1b(con1) (Hepatitis C virus genotype 1b, UniProt Q9WMX2)
- Construct: truncated C-terminally His-tagged NS3 proteins lacking the N-terminal protease, called NS3h; His-tag (C); made in house
- Protocol Text: RNA-stimulated ATP hydrolysis, pH 7.5, HCV
- Format: biochemical, hepatitis C virus genotype 1b(con1)
Binarize IC50 at 50 µM; below is 1, at or above is -1.

Compound | Assigned Category
Cc1ccc2nc(-c3ccc4nc(-c5ccc(NC(=O)c6ccc(C(C)(C)C)cc6)cc5)sc4c3)sc2c1S(=O)(=O)O [Compound 13] | -1
Cc1ccc2nc(-c3ccc4nc(-c5ccc(NC(=O)c6cc(C(F)(F)F)cc(C(F)(F)F)c6)cc5)sc4c3)sc2c1S(=O)(=O)O [Compound 24] | -1

Then there is this compound:
**Q:** Determine if Cc1ccc2nc(-c3ccc4nc(-c5ccc(NC(=O)c6ccc(C(F)(F)F)cc6)cc5)sc4c3)sc2c1S(=O)(=O)O [Compound 12] shows IC50 strictly lower than 50 µM.
**A:** 1

====

Give Inh. (%) (Inhibition) for every item shown.
- Tested Target: HCV NS3 helicase NS3h_1b(con1) (Hepatitis C virus genotype 1b, UniProt Q9WMX2)
- Construct: truncated C-terminally His-tagged NS3 proteins lacking the N-terminal protease, called NS3h; His-tag (C); made in house
- Sequence (Q9WMX2 1192-1657): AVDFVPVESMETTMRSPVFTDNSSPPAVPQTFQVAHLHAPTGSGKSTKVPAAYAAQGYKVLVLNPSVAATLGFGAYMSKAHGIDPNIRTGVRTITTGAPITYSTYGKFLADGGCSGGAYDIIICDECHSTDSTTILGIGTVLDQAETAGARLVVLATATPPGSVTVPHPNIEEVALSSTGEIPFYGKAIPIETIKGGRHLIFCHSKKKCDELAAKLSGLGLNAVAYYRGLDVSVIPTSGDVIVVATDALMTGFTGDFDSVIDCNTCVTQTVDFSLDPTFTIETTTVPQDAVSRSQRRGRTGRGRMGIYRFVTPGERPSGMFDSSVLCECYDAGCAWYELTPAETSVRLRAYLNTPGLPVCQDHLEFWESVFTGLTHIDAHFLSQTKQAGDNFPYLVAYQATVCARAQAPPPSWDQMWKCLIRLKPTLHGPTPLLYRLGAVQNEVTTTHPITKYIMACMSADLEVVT
- Protocol Text: MBHA screen of NCI mechanistic set library at 20 μM (percent inhibition, compound interference)
- Assay type: biochemical
- Test Context: compounds at 20 μM, MBHA with DNA substrate; calculated from Equation 1
Non-standard residues stand in square brackets, D forms with d. Residues, ends and D or L forms follow the SMILES beside them. ξ: configuration not given here. *: point of attachment. ξNMe2Val = CC(C)C(C(=O)*)N(C)C; NMeV = CN[CH](C(=O)O)C(C)C; NHBn = c1ccc(CN*)cc1
Please report the result as a number followed by the unit.

# annotated cases, reported Inh. (%) (Inhibition) shown
Compound | Result
O=C(O)c1ccc(NC(c2ccccc2)c2ccc3cccnc3c2O)cc1 (centres unmarked) | 3.7%
CN(C)CCN1C(=O)c2cccc3cc(N)cc(c23)C1=O | −13.3%
Cn1c(=O)c2nc3sc4c(n3c2n(C)c1=O)C(=O)c1ccccc1C4=O | −14.8%
CCOC(=O)c1ccc(-c2cc(C)no2)[nH]1 | −18.5%
CC1(C)CC2=NO[Se]3=C2C(=NO3)C1 | −1.3%
Cc1c2cnccc2c(C)c2c1c1ccccc1n2CCOC(=O)c1ccccc1 | −7.6%
O=C(Nc1ccc2c(c1)oc(=O)c1ccccc12)C(Cl)Cl | −9.8%
CN(C)CCOC1(Cc2ccc(F)cc2)CCC(C(C)(C)C)CC1.O=C(O)/C=C/C(=O)O (centres unmarked) | −2.6%

Look up Inh. (%) (Inhibition) for the entries below, preserving their order.
1. CC(C)C(C)C=CC(C)C1CCC2C3=CC=C4CC(O)CCC4(C)C3CCC21C (centres unmarked)
2. O=C(NC1=C(Cl)C(=O)c2ccccc2C1=O)C(=O)C(C(=O)c1ccc2ccccc2c1)C1OC(=O)c2ccccc21 (centres unmarked)
3. CC(=O)/C(=C\c1cccc([N+](=O)[O-])c1)C(=O)Nc1ccccc1C
4. COc1ccc(CCN(C)CCCC(C#N)(c2ccc(OC)c(OC)c2)C(C)C)cc1OC.Cl (centres unmarked)
5. CC(C)C(NC(=O)C(C(C)C)N(C)C)C(=O)N(C)C(C(=O)N1CCCC1C(=O)N1CCCC1C(=O)NCc1ccccc1)C(C)C.Cl (centres unmarked) [Compound 669356] (ξNMe2Val-V[NMeV]PP-NHBn; configuration not given here)
6. COc1ccc2oc(-c3ccncc3)cc(=O)c2c1
7. COc1ccc(/C=C2\Cc3ccccc3C2=O)cc1OC

**A:**
1. −9.1%
2. −13.1%
3. 15.7%
4. 5.8%
5. −9.2%
6. 24.7%
7. −9.6%

From: patent US9464064B2
